The measurements presented in this section are drawn from patent EP0465716A1.

The following compounds are listed with their measured MIC values.
- Test system: Klebsiella pneumoniae HNR 858
- protocol: MIC, twofold agar dilution method (clinically isolated strain)
- Type: cell-based
- protocol conditions: HNR858; Klebsiella pneumoniae HNR 858, Gram -; 10^6 cfu/ml; 18 hrs at 37 °C

[
  {
    "compound": "CC1Sc2c(C(=O)O)c(=O)c3cc(F)c(N4CCNCC4)c(F)c3n21 (stereo not shown)",
    "experimental endpoint": "MIC",
    "observed value": "0.39 µg/mL"
  },
  {
    "compound": "CC1Sc2c(C(=O)O)c(=O)c3cc(F)c(N4CCNCC4)cc3n21 (stereo not shown)",
    "experimental endpoint": "MIC",
    "observed value": "0.2 µg/mL"
  },
  {
    "compound": "NC1CCN(c2c(F)cc3c(=O)c(C(=O)O)c4n(c3c2F)CS4)C1 (stereo not shown)",
    "experimental endpoint": "MIC",
    "observed value": "0.78 µg/mL"
  }
]

The record that follows has no MIC shown yet.
For the compound CC1Sc2c(C(=O)O)c(=O)c3cc(F)c(N4CC[C@H](N)C4)c(Cl)c3n21 (single isomer, unassigned) , what MIC is on record?
0.1 µg/mL
